Origin of the recorded values: patent US20210214358A1

- PROTOCOL TEXT: Solubility experiment
- Assay type: physicochemical
- EXPERIMENTAL CONTEXT: 50% acetonitrile, aqueous with cosolvent or surfactant or cyclodextrin, thermodynamic from solid, 50% Acetonitrile; calculated for crystal form I; read-out: Solubility
MEASURED ATTRIBUTE: Solubility

**Query** So what does the record say about Solubility for CCN1CCN(Cc2ccc(Nc3ncc4c(n3)-c3c(nc(C5CC5)n3C(C)C)C4)nc2)CC1 [Crystal form I] ?
**Result** > 25 mg/mL

---

Each entry below carries its measured IC50, system: UniProt P11802.
Sequence (P11802 whole entry): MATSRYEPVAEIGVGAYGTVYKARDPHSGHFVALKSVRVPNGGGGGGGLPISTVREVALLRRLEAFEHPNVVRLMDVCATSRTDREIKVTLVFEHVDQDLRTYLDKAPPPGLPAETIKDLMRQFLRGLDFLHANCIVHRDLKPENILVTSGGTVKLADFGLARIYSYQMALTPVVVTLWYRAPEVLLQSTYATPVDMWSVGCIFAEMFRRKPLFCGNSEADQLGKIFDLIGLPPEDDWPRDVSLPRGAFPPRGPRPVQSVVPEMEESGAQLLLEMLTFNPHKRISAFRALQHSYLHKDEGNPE
Sequence (P24385 whole entry partner): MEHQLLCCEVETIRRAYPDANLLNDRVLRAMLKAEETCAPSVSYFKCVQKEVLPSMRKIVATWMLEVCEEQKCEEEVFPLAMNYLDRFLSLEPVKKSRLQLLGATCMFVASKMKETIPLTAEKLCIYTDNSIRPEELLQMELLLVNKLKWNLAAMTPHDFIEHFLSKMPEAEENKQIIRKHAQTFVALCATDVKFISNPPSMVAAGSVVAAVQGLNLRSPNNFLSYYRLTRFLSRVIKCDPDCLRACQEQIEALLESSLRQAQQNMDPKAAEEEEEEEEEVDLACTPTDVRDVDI
Give bare numbers, in nM.

MOLECULE | SYSTEM TESTED | RESULT VALUE
CCN1CCN(Cc2ccc(Nc3ncc4c(n3)-c3c(nc(C5CC5)n3C(C)C)C4)nc2)CC1 [Free base of compound of formula X] | UniProt P11802 | 10

Consider the record given below.
**Query** Which measured IC50 value corresponds to Cc1c2c(nn1C)CCc1cnc(Nc3ccc(N4CCN(C)CC4)cc3)nc1-2 [compound 1, reference compound] ?
**Result** 8
